tested on: U251 CNS; experiment: NCI tumour cell line growth inhibition, 48 h

{"molecule": "COc1ccccc1[N-]C(C1=C([O-])c2ccccc2C1=O)c1ccccc1.COc1ccccc1[N-]C(C1=C([O-])c2ccccc2C1=O)c1ccccc1.[Cu+2] (configuration not stated)", "experimental_system": "U251 CNS", "TGI": "8.33 µM"}
{"molecule": "O=C(O)CS(=O)(=O)C(c1ccccc1)c1ccccc1", "experimental_system": "U251 CNS", "TGI": "> 100 µM"}
{"molecule": "COc1cc(NC(C)=O)c2[nH]c3c(C)cc(NC(C)=O)c(C)c3c2c1", "experimental_system": "U251 CNS", "TGI": "> 100 µM"}
{"molecule": "O=c1n(/N=C/c2ccccc2)c(=O)n2n1C1C=CC2CC1", "experimental_system": "U251 CNS", "TGI": "> 100 µM"}
{"molecule": "O=c1[nH]c(=O)n(C2OC(CO)C(O)C(F)C2O)cc1F (configuration not stated)", "experimental_system": "U251 CNS", "TGI": "> 100 µM"}
{"molecule": "CC(=O)OC1c2ccccc2CC2(OC(C)=O)c3ccccc3C12 (configuration not stated)", "experimental_system": "U251 CNS", "TGI": "> 100 µM"}
{"molecule": "CCOC(=O)CCC(NC(=O)Cc1ccc(Nc2nc3ccccc3nc2-c2ccccc2)cc1)C(=O)OCC (configuration not stated)", "experimental_system": "U251 CNS", "TGI": "78.1 µM"}
